Experiment: Solubility test (24 h shaking at room temperature, HPLC)
Assay type: physicochemical
Conditions: simulated gastric fluid, thermodynamic from solid, pH 1, 0.1M hydrochloric acid aqueous solution
For each record, write down the corresponding solubility at 24 h.

| molecule | data-value |
| --- | --- |
| CO[C@H]1CN(C(=O)c2cc3nc(-c4cc(F)c(Cl)c(F)c4)cc(N(C)c4c(C)cccc4F)n3n2)CC[C@H]1CC(=O)O [Reference Example 4] | < 1 µg/mL |

Proceeding to the next molecule to report its solubility at 24 h.
So for `CO[C@H]1CN(C(=O)c2cc3nc(-c4cc(F)c(Cl)c(F)c4)cc(N(C)c4c(C)cccc4F)n3n2)CC[C@H]1CC(=O)O.Cl` , the logged solubility at 24 h turned out to be 4 µg/mL

---

Test: Solubility test (24 h shaking at room temperature, HPLC)
Format: physicochemical
Conditions: aqueous buffer, thermodynamic from solid, pH 7, Britton-Robinson buffer
For each record, write down the corresponding solubility at 24 h.

| compound | data-value |
| --- | --- |
| CO[C@H]1CN(C(=O)c2cc3nc(-c4cc(F)c(Cl)c(F)c4)cc(N(C)c4c(C)cccc4F)n3n2)CC[C@H]1CC(=O)O [Reference Example 4] | 13 µg/mL |

Proceeding to the next compound to report its solubility at 24 h.
So for CO[C@H]1CN(C(=O)c2cc3nc(-c4cc(F)c(Cl)c(F)c4)cc(N(C)c4c(C)cccc4F)n3n2)CC[C@H]1CC(=O)O.Cl [Example 1] , the logged solubility at 24 h turned out to be > 1200 µg/mL

Ref: patent US11312720B2
